# Test system: MDA-MB-231
# protocol: Growth inhibition of human MDA-MB-231 cells after 24 hrs by MTT assay
# Format: functional, cell-based
# measurementConditions: MDA-MB-231, 24 h
pIC50: −log10 of the molar value.
quantity: pIC50

Answered examples (2):
- CC(=O)OC[C@H]1O[C@@H](Oc2ccc(-c3nnc(-c4cccc(C#N)c4)o3)cc2)[C@H](OC(C)=O)[C@@H](OC(C)=O)[C@@H]1OC(C)=O: 5.97
- CC(=O)OC[C@H]1O[C@@H](Oc2ccc(-c3nnc(-c4cccc(Cl)c4)o3)cc2)[C@H](OC(C)=O)[C@@H](OC(C)=O)[C@@H]1OC(C)=O: 5.87

I: CC(=O)OC[C@H]1O[C@@H](Oc2ccc(-c3nnc(-c4ccc(F)cc4)o3)cc2)[C@H](OC(C)=O)[C@@H](OC(C)=O)[C@@H]1OC(C)=O
II: CC(=O)OC[C@H]1O[C@@H](Oc2ccc(-c3nnc(-c4ccc(Cl)cc4)o3)cc2)[C@H](OC(C)=O)[C@@H](OC(C)=O)[C@@H]1OC(C)=O
Request: Which item exceeds the other in pIC50, I or II ? Bench note: the answer is the label of the chosen record.
Result: I
(I: 6.59, II: 6.05)

---

# Tested on: MDA-MB-231
# protocol: Growth inhibition of human MDA-MB-231 cells after 24 hrs by MTT assay
# Type: functional, cell-based
# measurementConditions: MDA-MB-231, 24 h
quantity: IC50 (µM)

Answered examples (2):
- CC(=O)OC[C@H]1O[C@@H](Oc2ccc(-c3nnc(-c4ccccc4)o3)cc2)[C@H](OC(C)=O)[C@@H](OC(C)=O)[C@@H]1OC(C)=O: 5.97
- COc1ccc(-c2nnc(-c3ccc(O[C@@H]4O[C@H](COC(C)=O)[C@@H](OC(C)=O)[C@H](OC(C)=O)[C@H]4OC(C)=O)cc3)o2)cc1: 9.23

a: CN(CCOc1ccc(CC2SC(=O)NC2=O)cc1)c1ccccn1 (stereo unspecified) [ROSIGLITAZONE]
b: CCCCCc1nnc(-c2ccc(O[C@@H]3O[C@H](COC(C)=O)[C@@H](OC(C)=O)[C@H](OC(C)=O)[C@H]3OC(C)=O)cc2)o1
c: CC(=O)OC[C@H]1O[C@@H](Oc2ccc(-c3nnc(-c4ccc([N+](=O)[O-])cc4)o3)cc2)[C@H](OC(C)=O)[C@@H](OC(C)=O)[C@@H]1OC(C)=O
d: CC(=O)OC[C@H]1O[C@@H](Oc2ccc(-c3nnc(-c4cccc([N+](=O)[O-])c4)o3)cc2)[C@H](OC(C)=O)[C@@H](OC(C)=O)[C@@H]1OC(C)=O
Request: Sequence the entries by IC50, beginning with the highest number. Answer by listing the labels in the order asked for.
Result: b, a, d, c
